- measured.target: Pantothenate synthetase (Mycobacterium tuberculosis (strain ATCC 25618 / H37Rv)) (UniProt P9WIL5)
- Sequence (P9WIL5 whole entry, looked up): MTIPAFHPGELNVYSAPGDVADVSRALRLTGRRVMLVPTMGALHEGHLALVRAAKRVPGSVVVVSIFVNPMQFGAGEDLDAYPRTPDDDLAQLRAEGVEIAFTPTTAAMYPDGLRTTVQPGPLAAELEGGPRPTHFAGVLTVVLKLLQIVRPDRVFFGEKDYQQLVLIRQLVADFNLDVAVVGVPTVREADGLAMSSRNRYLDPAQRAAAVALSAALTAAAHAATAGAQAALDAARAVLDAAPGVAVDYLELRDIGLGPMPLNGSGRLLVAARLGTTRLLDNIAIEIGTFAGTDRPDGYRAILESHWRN
- test.description: Coupled enzyme confirmation of inhibitors against recombinant Mtb PanC (AID 375);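 note: 0% = full reaction with vehicle and 100% = no enzyme background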
- particulars: coupled enzyme assay; at 10 µM, stronger effect = higher value
quantity.name: inhibition (%)

1) O=C(COc1ccc2ccccc2c1)N1CCCC1 : 8
2) CC(NC(=O)OCc1ccccc1)C(=O)N1CC(O)CC1C(=O)O (stereo not drawn) : 0
3) CCOCCn1c(CN2CCN(CC)CC2)nc2c1c(=O)n(C)c(=O)n2C : 0
4) CC(=O)c1cnc2cc(-c3ccccc3)nn2c1C : 0
5) Cc1ccc(-c2nnn(CC(=O)N(CC3CCCO3)C(C(=O)NC(C)(C)C)c3ccc(F)cc3)n2)o1 (stereo not drawn) : 6
6) CN1CCN(S(=O)(=O)c2ccc(NC(=O)c3ccc(F)cc3)cc2)CC1 : 0
7) Cc1cc(N2C(=O)CC(N3CCN(c4ccc(C(=O)c5cccs5)cc4)CC3)C2=O)no1 (stereo not drawn) : 0
8) c1ccc(Cn2nnc3c(N4CCCCCC4)ncnc32)cc1 : 7
9) C/C=C(\CS(=O)(=O)c1ccccc1)S(=O)(=O)c1ccccc1 : 0
10) Cn1cnnc1SCC(=O)Nc1ccccc1Sc1ccccc1 : 7
11) O=C(CCn1c(=O)sc2ccccc21)NC1=NCCS1 : 3
12) Cc1cc(C)c2c(n1)sc1c(N3CCOCC3)ncnc12 : 5
13) COc1ccc(CCNc2oc(COc3ccc(F)cc3)nc2C#N)cc1 : 0
14) O=C(c1cnn2c1NC(c1ccco1)CC2C(F)(F)F)N1CCN(c2cccc(Cl)c2)CC1 (stereo not drawn) : 4
15) COc1ccc(N(C(=O)c2ccco2)S(=O)(=O)c2cc(OC)ccc2OC)cc1 : 0
16) O=C(O)C1C2C=CC(C3CC23)C1C(=O)NCCc1ccccc1 (stereo not drawn) : 6
17) O=S(=O)(c1ccc(Br)s1)N1CCN(c2ccccc2)CC1 : 0
18) O=C(c1ccc2ccccc2n1)N1CCN(c2ccccc2)CC1 : 0
19) C=CCSc1nnc(-c2ccccc2NC(C)=O)c(=O)[nH]1 : 0
20) CCN1CCN(c2nc(C)nc3c2sc(=S)n3C)CC1 : 0
21) CCOC(=O)N1CCN(C(=O)C(NS(=O)(=O)c2cccc3nsnc23)c2ccccc2)CC1 (stereo not drawn) : 0
22) CCCN(CCC)C(=O)C1CCN(c2cc(C)nc3c(-c4ccc(OC)c(OC)c4)c(C)nn23)CC1 : 0
23) Clc1ccc(Cn2ncc3c(NCc4cccnc4)ncnc32)cc1 : 0

---

- measured.target: Pantothenate synthetase (Mycobacterium tuberculosis (strain ATCC 25618 / H37Rv)) (UniProt P9WIL5)
- test.description: Coupled enzyme confirmation of inhibitors against recombinant Mtb PanC (AID 375);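 note: 0% = full reaction with vehicle and 100% = no enzyme background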
- particulars: coupled enzyme assay; at 10 µM, stronger effect = higher value
quantity.name: inhibition (%)

1) Cn1c(Cl)nc2ccccc21 : 0
2) COc1ccccc1NC(=O)c1ccc(COc2ccccc2OC)o1 : 0
3) Cc1c(Cl)cccc1NC(=O)CCN1CCCCC1 : 0
4) O=S1(=O)CCN2C(=N1)SC1=C2CCN(Cc2ccccc2)C1 : 2
5) CSC1CCCCC1(O)CSc1nc2c(cc1C#N)CCCC2 (stereo not given) : 4
6) CCOC(=O)c1nnn(-c2nonc2NC(C)=O)c1C : 8
7) CN(c1ccccc1C(=O)NCC1CCCO1)S(C)(=O)=O (stereo not given) : 2
8) CC(=O)Nc1ccc(OCC(O)CN2CCN(c3cccc(Cl)c3)CC2)cc1 (stereo not given) : 3
9) O=S(=O)(Nn1cnnc1)c1ccccc1Cl : 0
10) CCCSc1ccc2nc(NC(=O)OC)[nH]c2c1 : 0
11) Cc1ccc(C)c2[nH]c(=O)c(CN(CCN3CCCC3)C(=O)Nc3cccc(Cl)c3)cc12 : 0
12) Cc1c(C(=O)NCc2ccccc2)oc2c1C(=O)CCC2 : 0
13) O=C(CSc1nc2ccccc2o1)Nc1ccccc1 : 0
14) CC(C)(C)OC(=O)N1CCC(C(=O)N2CCCCCC2)CC1 : 5
15) O=C(CCn1nc(-c2ccccc2)ccc1=O)N1CCCC1 : 0
16) COc1ccc(/C=N/n2c(SC)nnc2-c2ccccc2)cc1C : 0
17) COc1ccc(S(=O)(=O)Cc2ccc(C(=O)NCCc3ccc(S(N)(=O)=O)cc3)o2)cc1 : 0
18) Nc1scc(-c2ccncc2)c1Cl : 7
19) CCc1nc2c(cnn2-c2ccc(Cl)cc2)c(=O)n1-c1ccc2c(c1)OCCO2 : 2
20) COc1ccc(-c2nc(CSCC(=O)N3CCN(c4cccc(C)c4)C(C)C3)c(C)o2)cc1OC (stereo not given) : 0
21) CCOC(=O)CC1(CC(=O)OCC)NC(=O)c2c(C)sc(C(=O)OCC)c2N1 : 1
22) O=C1CCNc2cc3ccccc3cc21 : 3
23) C[C@H](NC(=O)Nc1ccccc1F)C(=O)O : 2
24) CCn1c(SCC(=O)Nc2ccc3c(c2)OCO3)nnc1-c1ccccc1O : 2
25) CCN(CC)C(=O)C1=C(C)Nc2nnnn2C1c1cccnc1 (stereo not given) : 0

---

- measured.target: Pantothenate synthetase (Mycobacterium tuberculosis (strain ATCC 25618 / H37Rv)) (UniProt P9WIL5)
- test.description: Coupled enzyme confirmation of inhibitors against recombinant Mtb PanC (AID 375);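 note: 0% = full reaction with vehicle and 100% = no enzyme background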
- particulars: coupled enzyme assay; at 10 µM, stronger effect = higher value
If the reported inhibition equals or exceeds 3%, assign yes (1). If not, assign no (0).

1. CCc1cc2c(CN3CCN(CCO)CC3)cc(=O)oc2cc1O : no (0)
2. COc1ccc(NC(=O)CCc2ccccc2)cc1NC(=O)c1ccco1 : yes (1)
3. CCOC(=O)C1CCN(c2c(N3CCCCCC3)c(=O)c2=O)CC1 : no (0)
4. COc1ccc(C2SCC(=O)Nc3c2c(=O)[nH]n3C2CCCCCC2)cc1OC (stereo not given) : yes (1)
5. CC(C)[C@H]1C(=O)N2CCC[C@H]2[C@]2(O)O[C@](NC(=O)[C@@H]3C=C4c5cccc6[nH]cc(c56)C[C@H]4N(C)C3)(C(C)C)C(=O)N12 : yes (1)
6. COCCNC(=O)c1ccc(CS(=O)(=O)c2ccc(OC)cc2)o1 : no (0)
7. O=C(O)c1cc(=O)c2c(OCC(O)COc3cccc4oc(C(=O)O)cc(=O)c34)cccc2o1 : no (0)
8. CCOC(=O)N1CCN(c2cc(=O)n(-c3ccccc3Cl)c(=O)[nH]2)CC1 : no (0)
9. CCCOc1ccc(S(=O)(=O)NCCCN2CCOCC2)c2ccccc12 : no (0)

---

- test.description: RAM pathway blockade in budding yeast – dse1pr::URA3 reporter, 5-FOA selection, pilot screen (AID 869);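 note: 0% = DMSO wells with no growth and 100% = 10 µM 1-NA-PP1 with full growth; RAM network block rescues cells from 5-FOA so hits raise OD615 growth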
- particulars: S. cerevisiae dse1pr::URA3 5-FOA growth, OD615, 2 d, at 10 µM, stronger effect = higher value
Active and inactive are the calls of the source.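 Rule for the calls: active = inhibition over a set limit, the all-compound mean plus 3 SD, in both replicate runs; inconclusive = over that limit in just one replicate run; inactive = at or under that limit in both runs.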
quantity.name: inhibition

1) Cn1cc(C(=O)c2ccccc2)c2ccccc21 : 0.46% (inactive)
2) CC(C)NS(=O)(=O)c1ccc(OCC(=O)N2CCN(C)CC2)cc1 : 1.13% (inactive)
3) O=C1CC(=O)N(c2ccc(Cl)cc2Cl)C(=O)N1 : 0.19% (inactive)
4) Cc1ccc2c(c1)C1CN(C)CCC1N2C(=O)Cn1nnc(-c2ccccc2F)n1 (stereo unspecified) : 0.18% (inactive)
5) O=c1c2ccccc2nc(-c2ccco2)n1-c1ccncc1 : 0.635% (inactive)
6) CCCCCCOc1ccc(CN2CCN(CCO)CC2)cc1 : 2% (inactive)
7) COc1ccc(N2C(=O)CC(N3CC=C(c4ccccc4)CC3)C2=O)cc1 (stereo unspecified) : 0.145% (inactive)
8) c1ccc2c(CN3CCCCCCC3)c[nH]c2c1 : 0.485% (inactive)
9) Cn1c(O)c(C=NCCc2c[nH]c3ccccc23)c(=O)n(C)c1=O : 1.54% (inactive)
10) O=C1c2ccccc2C(=O)N1Cc1nc2ccccc2c(=O)n1-c1ccc(Br)cn1 : 1.44% (inactive)
11) O=C(CN1CC(c2ccccc2)CC1=O)Nc1ccccc1 (stereo unspecified) : 1.06% (inactive)

---

- measured.target: Pantothenate synthetase (Mycobacterium tuberculosis (strain ATCC 25618 / H37Rv))
- test.description: Coupled enzyme confirmation of inhibitors against recombinant Mtb PanC (AID 375);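 note: 0% = full reaction with vehicle and 100% = no enzyme background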
- particulars: coupled enzyme assay; at 10 µM, stronger effect = higher value
Activity calls are given as the source filed them. No rule for the calls is given here.
quantity.name: inhibition

1. Cc1ccc(-n2nc(-c3cccs3)cc2C(=O)NCC2CCCO2)c(C)c1 (stereo unspecified) : 0% (inactive)
2. CCSC1=C(C#N)C(c2ccccc2OC)CC(=O)N1 (stereo unspecified) : 4% (inactive)
3. Cc1ccc(-c2nnc(N3CCN(C(=O)CN4C(=O)c5ccccc5C4=O)CC3)c3ccccc23)cc1 : 0% (inactive)
4. CCc1nc(C)c(C#N)c2cc(OC)c(OC)cc12 : 0% (inactive)
5. Cc1cccc(NC(=O)Cn2c(=O)n(C)c3ccccc32)c1 : 0% (inactive)
6. CC1CCN(Cc2ccc(NC(=O)C3CCN(c4nnc(-n5cccc5)s4)CC3)cc2)CC1 : 0% (inactive)
7. CC(C)CCSc1nc2c(c(=O)[nH]c(=O)n2C)n1CCCc1ccccc1 : 0% (inactive)
8. O=C(Cn1ncc2ccccc21)N1CCN(c2cccc(C(F)(F)F)c2)CC1 : 2% (inactive)
9. CCC12CN3CC(CC)(CN(C1)C3c1ccc(OC(C)C)cc1)C2=O (stereo unspecified) : 9% (inactive)
10. O=c1c2ccccc2[nH]c(=S)n1CCN1CCC(=C(c2ccc(F)cc2)c2ccc(F)cc2)CC1 : 4% (inactive)
11. O=C1CC(c2ccccc2)CC(O)=C1C=NCCN1CCN(C(=O)Cc2ccccc2)CC1 (stereo unspecified) : 0% (inactive)
12. Cc1c(NC2=NC3(CCCCC3)Cc3ccccc32)c(=O)n(-c2ccccc2)n1C : 2% (inactive)
13. Cc1cc(C)c(OCC(=O)Nc2cccc(O)c2)cc1C : 0% (inactive)
14. CC1(C)NC(=O)N(CC(O)CN2CCCCC2)C1=O (stereo unspecified) : 0% (inactive)
15. COC(=O)C(C)C1Sc2ccccc2NC1=O (stereo unspecified) : 11% (inactive)
16. COc1ccc(C(F)(F)F)cc1NC(=O)c1nc2nc(C)cc(C(F)F)n2n1 : 1% (inactive)
17. COc1ccc(C(=O)Nn2c(C3CCC3)nc3ccccc3c2=O)c(OC)c1 : 0% (inactive)
18. Cc1nn(-c2ccc(Cl)cc2)c2sc(C(=O)N3CCN(c4ccccn4)CC3)cc12 : 4% (inactive)
19. COc1ncnc2c1N=C1CC(C)(C)CC(N)=C1S2 : 0% (inactive)
20. CN1CCN(c2nc3c(c(=O)[nH]c(=O)n3C)n2CCOc2ccccc2)CC1 : 0% (inactive)
21. CC(=O)Nc1cc(N2C(=O)CCC2=O)ccc1Cl : 0% (inactive)
22. CCCCC(c1nnnn1C1CCCC1)N1CCN(C2CCCCC2)CC1 (stereo unspecified) : 1% (inactive)
23. CCOc1ccccc1NC(=O)CSc1c(C)n[nH]c1C : 5% (inactive)
24. CCOC(=O)c1c(N)c(C#N)nn1-c1ccccc1C(=O)OC : 0% (inactive)
25. COc1ccc(C2c3sc(=O)[nH]c3SC3C4CCC(C4)C23)cc1 (stereo unspecified) : 7% (inactive)
26. COc1ccc(-n2c(SCC(=O)N3CCCCC3C)nnc2-c2cccnc2)cc1 (stereo unspecified) : 0% (inactive)
27. Cc1nc2sc(C(c3cccc(F)c3)N3CCCCC3)c(O)n2n1 (stereo unspecified) : 0% (inactive)
28. CCOC(=O)c1cc(CC)sc1NC(=O)COC : 7% (inactive)
29. COc1cc(-c2nnc(SCc3c(F)cccc3Cl)o2)cc(OC)c1OC : 0% (inactive)
30. CCOC(=O)N1CCN(C(=O)CCc2c(C)nc3c(c(C)nn3-c3ccc(C)c(C)c3)c2C)CC1 : 0% (inactive)
31. CCc1ccc(CNCc2cccnc2)cc1 : 0% (inactive)
32. Cc1cc(C)c2c(n1)nn1c(N3CCN(c4ccccc4C)CC3)cc(C)nc21 : 4% (inactive)
33. CC1(C)C2CCC1(CS(=O)(=O)NCc1ccc(C(=O)O)cc1)C(=O)C2 (stereo unspecified) : 0% (inactive)
34. Fc1cc(F)c(F)c(SCCc2ccncc2)c1F : 0% (inactive)
35. COc1ccc(NC(=O)CC2Sc3ncnn3C2=O)cc1 (stereo unspecified) : 0% (inactive)
36. O=C(NCCCNC1CCCCC1)c1ccc(/C=N/O)nc1 : 0% (inactive)
37. CN(C)S(=O)(=O)n1cnc(-c2ccccc2)c1-c1ccccc1 : 4% (inactive)
38. O=C(O)c1cccnc1Nc1cccc(C(F)(F)F)c1 : 0% (inactive)
39. CCn1cc(C(=O)O)c(=O)c2cc(F)c(N3CCN(C(=O)Nc4ccccc4)CC3)cc21 : 1% (inactive)
40. O=C(Nc1ccccc1)c1cnc2n(c1=O)CCS2 : 0% (inactive)
41. C/C(N)=C(\C#N)C(=O)NCCc1ccccn1 : 0% (inactive)
42. CCN1CCN(Cc2nc3c(c(=O)[nH]c(=O)n3C)n2Cc2ccccc2Cl)CC1 : 2% (inactive)
43. Nn1c(CSc2nc3ccccc3o2)nnc1CSc1nc2ccccc2o1 : 0% (inactive)
44. CCCCn1c(SCc2ccc(Cl)cc2)nc2c1c(=O)[nH]c(=O)n2C : 6% (inactive)
45. Cc1csc(SCC(=O)NC(=O)NCc2ccccc2)n1 : 9% (inactive)
46. COc1ccccc1Nc1ccc(C(=O)NC2CCCCC2)cn1 : 0% (inactive)

Origin of the recorded values: PubChem BioAssay
